Tested on: Rattus norvegicus
Experiment: Antihypertensive activity against DOCA-salt induced hypertension in albino rat assessed as reduction in systolic blood pressure at 10 mg/kg, po after 240 mins by tail-cuff method
Assay type: functional
Conditions: Artery, 4 h

{"compound": "CC1=C(C(=O)Nc2ccc([N+](=O)[O-])cc2)C(c2ccc(Br)cc2)N=C(SCc2ccc(F)cc2)N1 (configuration not stated)", "endpointUnit": "%", "inhibition in vivo at 10 mg/kg": 27.2}
{"compound": "CC1=C(C(=O)Nc2ccc(Br)cc2)C(c2ccc(Cl)cc2Cl)N=C(SCc2cccc(Cl)c2)N1 (configuration not stated)", "endpointUnit": "%", "inhibition in vivo at 10 mg/kg": 15.9}
{"compound": "COc1ccc(C2N=C(SCc3ccc(Cl)cc3)NC(C)=C2C(=O)Nc2ccc(F)cc2)cc1OC (configuration not stated)", "endpointUnit": "%", "inhibition in vivo at 10 mg/kg": 24.1}
{"compound": "COc1ccc(C2N=C(SCc3ccc(F)cc3)NC(C)=C2C(=O)Nc2ccc(Br)cc2)cc1 (configuration not stated)", "endpointUnit": "%", "inhibition in vivo at 10 mg/kg": 22.1}
{"compound": "CC1=C(C(=O)Nc2ccc(Br)cc2)C(c2ccc(Cl)cc2Cl)N=C(SCc2ccccc2Cl)N1 (configuration not stated)", "endpointUnit": "%", "inhibition in vivo at 10 mg/kg": 28.7}
{"compound": "CC1=C(C(=O)Nc2ccc(F)cc2)C(c2ccc([N+](=O)[O-])cc2)N=C(SCc2ccc(Cl)cc2)N1 (configuration not stated)", "endpointUnit": "%", "inhibition in vivo at 10 mg/kg": 33.3}
{"compound": "CC1=C(C(=O)Nc2ccc([N+](=O)[O-])cc2)C(c2ccc(Br)cc2)N=C(SCc2cccc(Cl)c2)N1 (configuration not stated)", "endpointUnit": "%", "inhibition in vivo at 10 mg/kg": 11.8}
{"compound": "COc1ccc(C2N=C(SCc3ccc(F)cc3)NC(C)=C2C(=O)Nc2ccc(F)cc2)cc1OC (configuration not stated)", "endpointUnit": "%", "inhibition in vivo at 10 mg/kg": 28.7}
{"compound": "CC1=C(C(=O)Nc2ccc([N+](=O)[O-])cc2)C(c2ccc(Br)cc2)N=C(SCc2ccccc2Cl)N1 (configuration not stated)", "endpointUnit": "%", "inhibition in vivo at 10 mg/kg": 15.4}
{"compound": "CC1=C(C(=O)Nc2ccc([N+](=O)[O-])cc2)C(c2ccc(Br)cc2)N=C(SCc2ccc(Cl)cc2)N1 (configuration not stated)", "endpointUnit": "%", "inhibition in vivo at 10 mg/kg": 29.7}
{"compound": "CC1=C(C(=O)Nc2ccc(F)cc2)C(c2ccc([N+](=O)[O-])cc2)N=C(SCc2ccc(F)cc2)N1 (configuration not stated)", "endpointUnit": "%", "inhibition in vivo at 10 mg/kg": 25.6}
{"compound": "CC1=C(C(=O)Nc2ccc(F)cc2)C(c2ccc([N+](=O)[O-])cc2)N=C(SCc2cccc(Cl)c2)N1 (configuration not stated)", "endpointUnit": "%", "inhibition in vivo at 10 mg/kg": 15.9}
{"compound": "COc1ccc(C2N=C(SCc3ccc(Cl)cc3)NC(C)=C2C(=O)Nc2ccc(Br)cc2)cc1 (configuration not stated)", "endpointUnit": "%", "inhibition in vivo at 10 mg/kg": 29.2}
{"compound": "CC1=C(C(=O)Nc2ccc(Br)cc2)C(c2ccc(Cl)cc2Cl)N=C(SCc2ccc(F)cc2)N1 (configuration not stated)", "endpointUnit": "%", "inhibition in vivo at 10 mg/kg": 36.4}
{"compound": "CC1=C(C(=O)Nc2ccc([N+](=O)[O-])cc2)C(c2ccc(Br)cc2)N=C(SCc2ccccc2)N1 (configuration not stated)", "endpointUnit": "%", "inhibition in vivo at 10 mg/kg": 27.7}
{"compound": "CC1=C(C(=O)Nc2ccc(Br)cc2)C(c2ccc(Cl)cc2Cl)N=C(SCc2ccccc2)N1 (configuration not stated)", "endpointUnit": "%", "inhibition in vivo at 10 mg/kg": 17.4}
{"compound": "COc1ccc(C2N=C(SCc3ccccc3Cl)NC(C)=C2C(=O)Nc2ccc(Br)cc2)cc1 (configuration not stated)", "endpointUnit": "%", "inhibition in vivo at 10 mg/kg": 15.4}
{"compound": "COc1ccc(C2N=C(SCc3cccc(Cl)c3)NC(C)=C2C(=O)Nc2ccc(F)cc2)cc1OC (configuration not stated)", "endpointUnit": "%", "inhibition in vivo at 10 mg/kg": 14.9}
{"compound": "COc1ccc(C2N=C(SCc3ccccc3)NC(C)=C2C(=O)Nc2ccc(F)cc2)cc1OC (configuration not stated)", "endpointUnit": "%", "inhibition in vivo at 10 mg/kg": 11.8}
{"compound": "COc1ccc(C2N=C(SCc3ccccc3)NC(C)=C2C(=O)Nc2ccc(Br)cc2)cc1 (configuration not stated)", "endpointUnit": "%", "inhibition in vivo at 10 mg/kg": 13.3}
{"compound": "CC1=C(C(=O)Nc2ccc([N+](=O)[O-])cc2)C(c2cccc([N+](=O)[O-])c2)N=C(SCc2ccccc2Cl)N1 (configuration not stated)", "endpointUnit": "%", "inhibition in vivo at 10 mg/kg": 12.8}
{"compound": "CC1=C(C(=O)Nc2ccc([N+](=O)[O-])cc2)C(c2cccc([N+](=O)[O-])c2)N=C(SCc2ccc(F)cc2)N1 (configuration not stated)", "endpointUnit": "%", "inhibition in vivo at 10 mg/kg": 22.6}
{"compound": "CC1=C(C(=O)Nc2ccc([N+](=O)[O-])cc2)C(c2cccc([N+](=O)[O-])c2)N=C(SCc2ccccc2)N1 (configuration not stated)", "endpointUnit": "%", "inhibition in vivo at 10 mg/kg": 21}
{"compound": "CC1=C(C(=O)Nc2ccc([N+](=O)[O-])cc2)C(c2cccc([N+](=O)[O-])c2)N=C(SCc2ccc(Cl)cc2)N1 (configuration not stated)", "endpointUnit": "%", "inhibition in vivo at 10 mg/kg": 20}
{"compound": "COc1ccc(C2N=C(SCc3ccccc3Cl)NC(C)=C2C(=O)Nc2ccc(F)cc2)cc1OC (configuration not stated)", "endpointUnit": "%", "inhibition in vivo at 10 mg/kg": 30.3}
{"compound": "COc1ccc(C2N=C(SCc3cccc(Cl)c3)NC(C)=C2C(=O)Nc2ccc(Br)cc2)cc1 (configuration not stated)", "endpointUnit": "%", "inhibition in vivo at 10 mg/kg": 33.8}
{"compound": "CC1=C(C(=O)Nc2ccc([N+](=O)[O-])cc2)C(c2cccc([N+](=O)[O-])c2)N=C(SCc2cccc(Cl)c2)N1 (configuration not stated)", "endpointUnit": "%", "inhibition in vivo at 10 mg/kg": 17.9}
